Below is a list of entries, each paired with its recorded growth inhibition value.
assay: NCI Yeast Anticancer Drug Screen. Data for the bub3 strain (AID 167); conditions: S. cerevisiae bub3 mutant strain, at 50.0 µM, hits give high values
The panel holds about 79,000 compounds, 15% with a hit somewhere; the sample as a whole holds those more often.
Please respond with the number in % and leave the unit unwritten.

Observe how each entry below is paired with its result.
- compound: "Nc1nc(N)nc(-c2ccccc2NC(=O)c2ccccc2N)n1"
  growth inhibition / %: 6.85
- compound: "Cc1ccc2nc(N/N=C/c3sccc3C)cc(C)c2c1"
  growth inhibition / %: -30.1
- compound: "Cn1c(=O)c2c(ncn2CCN2CCNCC2)n(C)c1=O"
  growth inhibition / %: 25.4
- compound: "CC1(C)C2CCC3CC(CCC#N)CCC3C21C#N (stereo unspecified)"
  growth inhibition / %: -37.8
- compound: "COc1ccc(OC)c(NC(=O)SC(C)C)c1"
  growth inhibition / %: 18.2

Query: // lookup growth inhibition for "CC(=O)NCCCCNS(=O)(=O)c1ccc(C)cc1"
Result: -0.7

Query: Sample "N#Cc1[nH]cnc1O" — what was its growth inhibition?
Result: 17.4

Query: May I ask what growth inhibition has been recorded for "Cc1ccc(C)c(OC(=O)NC2CCCCC2)c1" ?
Result: 0

Query: Which growth inhibition value is on record for "Clc1ccc(CNc2nc3ccccc3nc2-c2cccs2)c(Cl)c1" ?
Result: 12.3

Query: Requested field: growth inhibition. Item: O=S(Nc1ccc(Cl)cc1)c1ccccc1 (stereo unspecified)
Result: 18.1

Query: Item "Nc1ccc(CP(=O)(O)O)cc1" has what recorded growth inhibition?
Result: 16.1
